- assayedSystem: PFKP 6-phosphofructokinase type C (Homo sapiens)
- Construct: isoTOP-ABPP experiments performed in cell lysates (in vitro); endogenous in cells
- Sequence (Q01813 whole entry, the tested form may be a part): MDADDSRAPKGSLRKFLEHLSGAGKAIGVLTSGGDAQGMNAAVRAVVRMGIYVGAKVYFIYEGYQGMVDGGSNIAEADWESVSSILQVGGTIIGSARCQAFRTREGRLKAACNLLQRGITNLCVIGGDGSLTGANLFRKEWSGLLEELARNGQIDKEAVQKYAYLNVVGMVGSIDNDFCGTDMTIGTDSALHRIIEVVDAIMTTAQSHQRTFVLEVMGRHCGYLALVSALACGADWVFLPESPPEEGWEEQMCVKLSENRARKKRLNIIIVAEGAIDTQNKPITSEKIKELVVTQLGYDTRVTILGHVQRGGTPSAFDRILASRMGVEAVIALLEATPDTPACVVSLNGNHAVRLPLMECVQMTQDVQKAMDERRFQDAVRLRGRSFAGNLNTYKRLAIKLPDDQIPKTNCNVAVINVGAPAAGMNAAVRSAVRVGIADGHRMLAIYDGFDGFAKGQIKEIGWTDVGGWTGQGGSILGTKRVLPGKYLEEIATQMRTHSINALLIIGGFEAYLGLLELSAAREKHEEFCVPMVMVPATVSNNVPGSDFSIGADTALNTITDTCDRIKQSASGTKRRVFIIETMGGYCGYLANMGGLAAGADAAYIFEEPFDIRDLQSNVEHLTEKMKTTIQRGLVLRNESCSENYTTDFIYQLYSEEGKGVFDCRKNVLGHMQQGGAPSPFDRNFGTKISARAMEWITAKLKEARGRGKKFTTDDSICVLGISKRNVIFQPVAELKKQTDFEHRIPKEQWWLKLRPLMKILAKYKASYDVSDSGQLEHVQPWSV
- assayExplanation: competitive isoTOP-ABPP
- Type: binding
- conditionDetails: 50 uM, in vitro, sol, 231
property: isoTOP-ABPP ratio (R) at liganded lysine Q01813_K688
One number for each entry.

Previously resolved entries follow.
O=C(Oc1ccc([N+](=O)[O-])cc1[N+](=O)[O-])c1ccc(Oc2ccccc2)cc1 [fragment 39, 2,4-Dinitrophenyl 4-phenoxybenzoate]	1.0
O=C(CC12CC3CC(CC(C3)C1)C2)Oc1ccc([N+](=O)[O-])cc1[N+](=O)[O-] [fragment 38]	4.1

// next entry
Observed isoTOP-ABPP ratio (R) at liganded lysine Q01813_K688 on PFKP 6-phosphofructokinase type C (Homo sapiens) for O=C(Oc1ccc([N+](=O)[O-])cc1[N+](=O)[O-])c1ccc2ccccc2n1 [fragment 35] , please.
3.3

###

- assayedSystem: ABCE1 ATP-binding cassette sub-family E member 1 (Homo sapiens)
- Construct: isoTOP-ABPP experiments performed in cell lysates (in vitro); endogenous in cells; host or cells: soluble proteome of human cancer cell lines (MDA-MB-231, Ramos, Jurkat)
- assayExplanation: competitive isoTOP-ABPP
- conditionDetails: 50 uM_231_sol_in vitro
property: isoTOP-ABPP ratio, lysine P61221_K191
Numbers only.

Known isoTOP-ABPP ratio, lysine P61221_K191 results, listed for orientation:
O=C(Oc1c(F)c(F)cc(F)c1F)c1cc(C(F)(F)F)cc(C(F)(F)F)c1	1.0
NC(=O)c1cc(C(F)(F)F)cc(C(F)(F)F)c1 [fragment 51, reference compound]	1.0

Provide the reported isoTOP-ABPP ratio, lysine P61221_K191 of each entry below, same order.
1. O=C(ON1C(=O)CCC1=O)c1cc(C(F)(F)F)cc(C(F)(F)F)c1
2. N#Cc1ccc(C(=O)Oc2ccc([N+](=O)[O-])cc2[N+](=O)[O-])cc1 [fragment 44, 2,4-Dinitrophenyl 4-cyanobenzoate]
3. O=C(CCc1ccc2c(c1)OCO2)Oc1ccc([N+](=O)[O-])cc1[N+](=O)[O-]
4. O=C(Oc1c(F)c(F)c(C(F)(F)F)c(F)c1F)c1cc(C(F)(F)F)cc(C(F)(F)F)c1

1: 20.0; 2: 1.1; 3: 1.1; 4: 1.7

###

- assayedSystem: MTOR Serine/threonine-protein kinase mTOR (Homo sapiens, UniProt P42345)
- Construct: isoTOP-ABPP experiments performed in cell lysates (in vitro); endogenous in cells; host or cells: soluble proteome of human cancer cell lines (MDA-MB-231; Ramos and Jurkat also prepared)
- assayExplanation: competitive isoTOP-ABPP
- Type: binding
- conditionDetails: 50 uM, 231 sol, in vitro
property: isoTOP-ABPP reactivity ratio at lysine P42345_K2066

Please review the following examples before continuing.
O=C(CCc1cn(-c2ccccc2)nc1-c1ccccc1)Oc1ccc([N+](=O)[O-])cc1[N+](=O)[O-]	1.0
O=C(CN1C(=O)c2ccccc2C1=O)Oc1c(F)c(F)c(F)c(F)c1F	2.5
CCn1cc(C(=O)Oc2c(F)c(F)c(F)c(F)c2F)c(=O)c2ccc(C)nc21	1.0
O=C(Oc1c(F)c(F)c(F)c(F)c1F)C1CCN(C(=O)OCc2ccccc2)CC1	1.0
O=C(CCc1coc2cc(F)ccc2c1=O)Oc1c(F)c(F)c(F)c(F)c1F	2.8
O=C(Oc1ccc([N+](=O)[O-])cc1[N+](=O)[O-])c1cc(C(F)(F)F)cc(C(F)(F)F)c1	1.1

Dear colleague, could you please provide isoTOP-ABPP reactivity ratio at lysine P42345_K2066 for the molecules listed below?
1. Cn1cc(CC(=O)Oc2ccc([N+](=O)[O-])cc2[N+](=O)[O-])c2ccccc21
2. COc1cc(CCC(=O)Oc2ccc([N+](=O)[O-])cc2[N+](=O)[O-])cc(OC)c1OC
3. O=C(Oc1ccc([N+](=O)[O-])cc1[N+](=O)[O-])C(c1ccccc1)c1ccccc1 [fragment 30, 2,4-Dinitrophenyl 2,2-diphenylacetate]

1: 8.0; 2: 1.1; 3: 3.5

Origin of values: patent US20210255193A1
